- tested.on: human neurokinin 1 (NK1) receptor (Homo sapiens)
- Sequence (P25103 whole entry): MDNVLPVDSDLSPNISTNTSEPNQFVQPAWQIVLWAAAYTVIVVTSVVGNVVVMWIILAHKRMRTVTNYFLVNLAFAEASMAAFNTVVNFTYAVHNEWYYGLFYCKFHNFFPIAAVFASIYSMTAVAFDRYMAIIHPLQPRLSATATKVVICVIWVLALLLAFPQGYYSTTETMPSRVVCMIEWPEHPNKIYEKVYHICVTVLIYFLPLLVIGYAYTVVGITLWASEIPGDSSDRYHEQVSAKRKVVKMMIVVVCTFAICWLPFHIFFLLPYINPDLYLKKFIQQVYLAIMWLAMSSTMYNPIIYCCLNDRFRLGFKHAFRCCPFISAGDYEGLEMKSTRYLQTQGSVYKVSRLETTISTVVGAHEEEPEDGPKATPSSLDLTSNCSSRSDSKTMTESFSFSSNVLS
The label is Y for Ki below 20 nM and N for Ki equal to or exceeding 20 nM.

# count of solved cases: 5
# compound, tested.on, label.class
rows = [
    ("Cc1cc(C)cc(C(=O)N2CCN(C(=O)CO[C@H]3C[C@H]4CC[C@@H](C3)N4C(=O)OC(C)(C)C)[C@H](c3ccc(Cl)c(Cl)c3)C2)c1 [Example 56]", "human neurokinin 1 (NK1) receptor (Homo sapiens)", "N"),
    ("Cc1cc(C)cc(C(=O)N2CCN(C(=O)CCN3C[C@@H]4C[C@H]3CN4C(=NC#N)Nc3ccccc3)[C@H](c3ccc(Cl)c(Cl)c3)C2)c1 [Example 30]", "human neurokinin 1 (NK1) receptor (Homo sapiens)", "N"),
    ("CNC(=O)N[C@H](Cc1ccccc1)C(=O)N1C[C@@H]2C[C@H]1CN2CCC(=O)N1CCN(C(=O)c2cc(C)cc(C)c2)C[C@H]1c1ccc(Cl)c(Cl)c1 [35 (R = --CH3)]", "human neurokinin 1 (NK1) receptor (Homo sapiens)", "Y"),
    ("Cc1cc(C)cc(C(=O)N2CCN(C(=O)CO[C@@H]3C[C@@H]4C[C@H]3CN4Cc3ccsc3)[C@H](c3ccc(Cl)c(Cl)c3)C2)c1 [Example 50]", "human neurokinin 1 (NK1) receptor (Homo sapiens)", "Y"),
    ("CNC(=O)c1ccc(CN2[C@@H]3CC[C@H]2C[C@@H](OCC(=O)N2CCN(C(=O)c4cc(C)cc(C)c4)C[C@H]2c2ccc(Cl)c(Cl)c2)C3)cc1 [Example 58]", "human neurokinin 1 (NK1) receptor (Homo sapiens)", "Y"),
]

Alright, here's another compound for you.
Record Cc1cc(C)cc(C(=O)N2CCN(C(=O)CN[C@H]3C[C@H]4CC[C@@H](C3)N4C(=O)OC(C)(C)C)[C@H](c3ccc(Cl)c(Cl)c3)C2)c1 [Example 67] : is its Ki strictly below 20 nM? N

----------
Provide the reported log10 Ki of each item.
- tested.on: human neurokinin 2 (NK2) receptor (Homo sapiens, UniProt P21452)
- Construct: expressed in transfected cells; host or cells: Chinese hamster ovary (CHO) cells, membranes
- Sequence (P21452 whole entry): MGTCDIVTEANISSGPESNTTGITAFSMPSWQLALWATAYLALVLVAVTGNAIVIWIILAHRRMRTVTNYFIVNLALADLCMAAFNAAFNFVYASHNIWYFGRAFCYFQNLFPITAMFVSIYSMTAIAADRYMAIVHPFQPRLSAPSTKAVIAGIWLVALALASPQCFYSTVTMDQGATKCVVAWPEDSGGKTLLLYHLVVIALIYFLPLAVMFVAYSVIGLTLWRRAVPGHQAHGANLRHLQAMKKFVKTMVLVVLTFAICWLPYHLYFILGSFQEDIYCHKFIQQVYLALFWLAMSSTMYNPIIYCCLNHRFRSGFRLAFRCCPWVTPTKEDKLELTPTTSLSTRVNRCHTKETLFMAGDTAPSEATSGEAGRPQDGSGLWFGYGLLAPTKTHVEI
- method: Neurokinin receptor binding assay, NK2 ([3H]-Neurokinin A, CHO cell membranes)
- experimental.setup: competition with [3H]-Neurokinin A, Cheng and Prusoff
Would you kindly interpret these values as log10 of Ki expressed in nM?

Guide cases for log10 Ki, answers given:
# molecule, log10 Ki
data = [
    ("Cc1cc(C)cc(C(=O)N2CCN(C(=O)CN[C@H]3C[C@H]4CC[C@@H](C3)N4C(=O)OC(C)(C)C)[C@H](c3ccc(Cl)c(Cl)c3)C2)c1", 0.97),
    ("CNC(=O)N[C@H](Cc1ccccc1)C(=O)N1C[C@@H]2C[C@H]1CN2CCC(=O)N1CCN(C(=O)c2cc(C)cc(C)c2)C[C@H]1c1ccc(Cl)c(Cl)c1 [35 (R = --CH3)]", -0.03),
    ("CNC(=O)c1ccc(CN2[C@@H]3CC[C@H]2C[C@@H](OCC(=O)N2CCN(C(=O)c4cc(C)cc(C)c4)C[C@H]2c2ccc(Cl)c(Cl)c2)C3)cc1", 1.76),
    ("Cc1cc(C)cc(C(=O)N2CCN(C(=O)CO[C@H]3C[C@H]4CC[C@@H](C3)N4C(=O)OC(C)(C)C)[C@H](c3ccc(Cl)c(Cl)c3)C2)c1", 1.74),
]

Would you be so kind as to report log10 Ki for each listed record?
1. CC(=O)Nc1ccc(CN2C[C@@H]3C[C@H]2C[C@H]3OCC(=O)N2CCN(C(=O)c3cc(C)cc(C)c3)C[C@H]2c2ccc(Cl)c(Cl)c2)cc1
2. Cc1cc(C)cc(C(=O)N2CCN(C(=O)CCN3C[C@@H]4C[C@H]3CN4C(=NC#N)Nc3ccccc3)[C@H](c3ccc(Cl)c(Cl)c3)C2)c1

1. 0.64
2. 1.38
